# Tested on: MDA-MB-468 breast
# method-description: NCI-60 one-dose screen, 48 h
# measurement-conditions: 10 µM unless noted
About 83,000 compounds went through this panel and 20% of them were active in at least one assay; those are over-represented in the sample as a whole. Activity calls are given as the source filed them. How the source made its calls: active means growth percent below 10; inactive means the rest.
Labels: active, inactive

[
  {
    "molecule": "Cc1cc(NCc2cc(Nc3ccnc4cc(Cl)ccc34)ccc2F)nc(N2CCN(C)CC2)n1",
    "assigned-category": "active"
  },
  {
    "molecule": "Oc1ccccc1-c1nnc(SCc2ccc(O)c3ncccc23)o1",
    "assigned-category": "inactive"
  },
  {
    "molecule": "Nc1nc(N)nc(N2CCCCC2)n1",
    "assigned-category": "inactive"
  },
  {
    "molecule": "c1ccc(-c2oc(-c3ccccc3)c(CN3CCCCC3)c2CN2CCCCC2)cc1",
    "assigned-category": "active"
  },
  {
    "molecule": "ClCCOCCn1cnc2c(Cl)nc(Cl)nc21",
    "assigned-category": "active"
  },
  {
    "molecule": "COCCn1cc(-c2csc(-c3cn(C)c4ccc(F)cc34)n2)c2cccnc21",
    "assigned-category": "inactive"
  },
  {
    "molecule": "c1ccc(-n2nnnc2-c2cccc3ccccc23)cc1",
    "assigned-category": "active"
  },
  {
    "molecule": "COc1ccc(C(=O)Nc2ncc(Cc3ccccc3Cl)s2)cc1",
    "assigned-category": "inactive"
  },
  {
    "molecule": "COc1ccc(-c2nc(SC(C)C)nc(NNC(N)=S)c2C#N)cc1",
    "assigned-category": "inactive"
  },
  {
    "molecule": "Cc1nc2sc(C(=O)Nc3ccccn3)c(N)c2cc1C(C)O (stereo unspecified)",
    "assigned-category": "inactive"
  },
  {
    "molecule": "CN1CCN(Cc2ccc(NC(=O)c3[nH]ncc3Nc3ncnc4c3CCC4)cc2)CC1",
    "assigned-category": "active"
  }
]
